Values compiled from PubChem BioAssay (NCATS).

# Subject of test: Pyruvate kinase PKM (Homo sapiens) (UniProt P14618)
# Sequence (P14618 whole entry, looked up): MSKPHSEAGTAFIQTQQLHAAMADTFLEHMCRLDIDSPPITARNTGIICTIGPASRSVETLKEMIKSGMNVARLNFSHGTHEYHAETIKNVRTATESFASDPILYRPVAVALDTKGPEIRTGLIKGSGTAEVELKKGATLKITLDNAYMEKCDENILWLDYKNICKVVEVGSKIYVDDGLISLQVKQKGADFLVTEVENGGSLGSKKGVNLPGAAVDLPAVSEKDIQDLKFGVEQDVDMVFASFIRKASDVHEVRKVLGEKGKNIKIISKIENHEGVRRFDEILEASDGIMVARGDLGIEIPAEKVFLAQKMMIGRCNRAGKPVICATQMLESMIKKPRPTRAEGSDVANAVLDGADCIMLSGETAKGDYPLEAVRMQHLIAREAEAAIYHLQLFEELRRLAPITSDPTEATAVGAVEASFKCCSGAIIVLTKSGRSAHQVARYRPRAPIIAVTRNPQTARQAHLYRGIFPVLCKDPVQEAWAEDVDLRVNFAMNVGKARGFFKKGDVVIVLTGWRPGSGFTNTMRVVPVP
# Procedure text: qHTS Assay for Inhibitors of Human Muscle Pyruvate Kinase (AID 958)
# Conditions used: purified human PKM enzyme activity; series mostly up to 57.5 µM
Inconclusive results are not listed. Active and inactive are the calls of the source. Calls come from the whole dose curve; as a rule, active = well fitted inhibition curve with a large enough effect; inconclusive = small, poorly fitted or top-dose-only effect; inactive = no such curve, though single readings can be large or run the other way.
Labels: active, inactive

> print(dat)
                            compound.string                           subject.of.test  label.class
1         O=C(/C=C\c1ccc(O)cc1)c1ccc(O)cc1O  Pyruvate kinase PKM (Homo sapiens) (UniProt P14618)       active
2       COc1ccc(NC(=O)/C=C\c2ccc(Cl)cc2)cc1  Pyruvate kinase PKM (Homo sapiens) (UniProt P14618)       active
3  CNC(=O)[C@@H]1O[C@@H](n2cnc3c(NCc4cccc(I)c4)ncnc32)[C@H](O)[C@@H]1O  Pyruvate kinase PKM (Homo sapiens) (UniProt P14618)     inactive
4         Oc1cc(O)cc(/C=C\c2ccc(O)c(O)c2)c1  Pyruvate kinase PKM (Homo sapiens) (UniProt P14618)       active
